Reported Property: melting point

Input: Output melting point of `C#CCN/C(=C\[N+](=O)[O-])Nc1cccc(-c2ccc(C[C@H](NS(=O)(=O)CC34CC[C@@H](CC3=O)C4(C)C)C(=O)O)cc2)c1`
Output: 185 °C (dec.)

Input: Output melting point of COc1ccc(-c2cccc(NC(=O)Nc3nccs3)c2)cc1S(=O)(=O)NC(CC(=O)O)c1ccccc1 (stereo not drawn)
Output: > 240 °C

Input: Output melting point of O=C(O)CC(NS(=O)(=O)c1cccc(-c2cccc(NC(=O)Nc3nc4ccccc4[nH]3)c2)c1)c1cccnc1 (stereo not drawn)
Output: 170 °C

* * *

Reported Property: melting point

Worked cases, answers included:
COc1ccc(-c2cccc(NC(=O)NCCSC(F)(F)F)c2)cc1S(=O)(=O)NC(CC(=O)O)c1ccccc1 (stereo not drawn); > 240 °C
CCNC(=O)Nc1cccc(-c2ccc(OC)c(S(=O)(=O)NC(CC(=O)O)c3ccccc3)c2)c1 (stereo not drawn); > 250 °C

Continue with the molecule presented below.
Input: Output melting point of COc1ccc(-c2cccc(NC(=O)Nc3nncs3)c2)cc1S(=O)(=O)NC(CC(=O)O)c1ccccc1 (stereo not drawn)
Output: > 240 °C

* * *

Reported Property: melting point (°C)

COc1ccc(-c2ccc(NC(=O)NC3CC3)cc2)cc1S(=O)(=O)NC(CC(=O)O)c1ccccc1 (stereo not drawn); 234
Cc1cc(C)c(S(=O)(=O)N[C@@H](Cc2ccc(-c3cccc(NC(=O)N=c4[nH]c5cc(C)c(C)cc5[nH]4)c3)cc2)C(=O)O)c(C)c1; 202
Cc1cc(C)c(S(=O)(=O)N[C@@H](Cc2ccc(-c3cccc(NC(=O)N=c4[nH]c5ccccc5[nH]4)c3)cc2)C(=O)O)c(C)c1; 207
CC1(C)[C@H]2CCC1(CS(=O)(=O)N[C@@H](Cc1ccc(-c3cccc(NC4=C(NC5CC5)C(=O)C4O)c3)cc1)C(=O)O)C(=O)C2 (stereo partly drawn); 152
C[C@H](NS(=O)(=O)c1cccc(-c2cccc(NC(=O)N=c3[nH]c4ccccc4[nH]3)c2)c1)C(=O)O; 218
Cc1cc(C)c(S(=O)(=O)N[C@@H](Cc2ccc(-c3cccc(NC(=O)Nc4cc(C)on4)c3)cc2)C(=O)O)c(C)c1; 189

* * *

Reported Property: melting point

Worked cases, answers included:
COc1ccc(-c2cccc(Nc3ncccc3N)c2)cc1S(=O)(=O)NC(CC(=O)O)c1ccccc1 (stereo not shown) [Example 20.4]; > 240 °C
O=C(O)[C@H](Cc1ccc(-c2cccc(CNc3ccccn3)c2)cc1)NS(=O)(=O)c1c(F)cccc1F [Example 18.12]; > 240 °C
Cc1cc(C)c(S(=O)(=O)N[C@@H](Cc2ccc(-c3cccc(Nc4nc5ccccc5[nH]4)c3)cc2)C(=O)O)c(C)c1 [Example 16.1.3]; 190 °C (dec.)

Continue with the compound presented below.
Input: Output melting point of COc1ccc(-c2cccc(NC(=O)/N=c3\[nH]c4ccc(C(=O)O)cc4[nH]3)c2)cc1S(=O)(=O)NC(CC(=O)O)c1ccccc1 (stereo not shown) [Example 4.103]
Output: > 240 °C

* * *

As shown below, each of these compounds has a reported melting point value.

Worked cases, answers included:
Cc1cc(C)c(S(=O)(=O)N[C@@H](Cc2ccc(-c3cccc(Nc4c(NCc5ccccc5)c(=O)c4=O)c3)cc2)C(=O)O)c(C)c1; 226 °C (dec.)
O=C(O)[C@H](Cc1ccc(-c2cccc(CNc3ccccn3)c2)cc1)NS(=O)(=O)c1ccc(F)cc1; > 240 °C

Continue with the compound presented below.
Input: Output melting point of Cc1cc(C)c(S(=O)(=O)N[C@@H](Cc2ccc(-c3cccc(Nc4n[s+]([O-])nc4NC4CC4)c3)cc2)C(=O)O)c(C)c1 (stereo partly drawn)
Output: 180 °C (dec.)
